# assayExplanation: Oral bioavailability in Beagle dogs
# Type: in vivo, male Beagle dogs
# protocolConditions: male, Beagle, whole blood; Dog; oral gavage; solution in water containing 2% DMSO (final pH=3.5); dose not given; oral DNAUC / i.v. DNAUC x 100
metric: bioavailability

The recorded bioavailability for entry CN[C@H](CNC(=O)N1CCC[C@@H]([C@@H](OCCNC(=O)OC)c2cccc(Cl)c2)C1)C[C@H]1CCCOC1.O=C(O)/C=C/C(=O)O [Compound D] equals 43%
